Cited source for all entries: ChEMBL document CHEMBL3425447

# TEST DETAILS: Metabolic stability in human liver microsomes assessed as compound remaining at 1 uM after 60 mins by LC-ESI/MS/MS analysis in absence of NADPH
# Assay type: ADME
# DETAILS: read-out: Stability
QUANTITY: remaining at 1 h, 1 µM

SMILES	TEST RESULT
O=C(/C=C/c1cccn(Cc2ccc3ccccc3n2)c1=O)NO	74.7%

----------
# Tested on: ACHN
# TEST DETAILS: Growth inhibition of human ACHN cells after 5 days by sulforhodamine B assay
# Format: functional
# DETAILS: 120 h
Threshold 2000 nM. GI50 below it: True. GI50 at it or above: False.

SMILES	CAT
O=C(/C=C/c1cccn(CCCc2ccc(Br)cc2)c1=O)NO	False
CC(C)(C)c1ccc(CCn2cccc(/C=C/C(=O)NO)c2=O)cc1	True
O=C(/C=C/c1cccn(Cc2ccccn2)c1=O)NO	False
O=C(/C=C/c1cccn(CCc2ccncc2)c1=O)NO	False
O=C(/C=C/c1cccn(Cc2ccc3ccccc3n2)c1=O)NO	True
O=C(/C=C/c1cccn(CCCc2cccnc2)c1=O)NO	False
O=C(/C=C/c1cccn(CCc2ccc(Br)cc2)c1=O)NO	False
COc1ccc(Cn2cccc(/C=C/C(=O)NO)c2=O)cc1	False
COc1cccc(CCCn2cccc(/C=C/C(=O)NO)c2=O)c1	True
CCOc1ccccc1CCCn1cccc(/C=C/C(=O)NO)c1=O	True
O=C(/C=C/c1cccn(Cc2cccc(Br)c2)c1=O)NO	False
CCOc1ccccc1CCn1cccc(/C=C/C(=O)NO)c1=O	False
CC(C)(C)c1ccc(CCCn2cccc(/C=C/C(=O)NO)c2=O)cc1	True
CCc1ccc(CCn2cccc(/C=C/C(=O)NO)c2=O)cc1	True
CCc1ccccc1Cn1cccc(/C=C/C(=O)NO)c1=O	False
CC(C)(C)c1ccc(Cn2cccc(/C=C/C(=O)NO)c2=O)cc1	False
O=C(/C=C/c1cccn(CCCc2cccc(Br)c2)c1=O)NO	True
CCOc1ccc(CCn2cccc(/C=C/C(=O)NO)c2=O)cc1	False
COc1ccc(CCCn2cccc(/C=C/C(=O)NO)c2=O)cc1	True
O=C(/C=C/c1cccn(CCCc2ccccc2Br)c1=O)NO	True
COc1cccc(Cn2cccc(/C=C/C(=O)NO)c2=O)c1	True
CCOc1cccc(CCn2cccc(/C=C/C(=O)NO)c2=O)c1	True
O=C(/C=C/c1cccn(Cc2ccccc2Br)c1=O)NO	True
O=C(/C=C/c1cccn(CCc2ccccn2)c1=O)NO	False
CCc1ccc(CCCn2cccc(/C=C/C(=O)NO)c2=O)cc1	True
O=C(/C=C/c1cccn(Cc2ccncc2)c1=O)NO	False
CCc1ccc(Cn2cccc(/C=C/C(=O)NO)c2=O)cc1	True
O=C(/C=C/c1cccn(Cc2ccc(Br)cc2)c1=O)NO	True
O=C(/C=C/c1cccn(Cc2cccnc2)c1=O)NO	False
COc1cccc(CCn2cccc(/C=C/C(=O)NO)c2=O)c1	False

----------
# TEST DETAILS: Clearance in Sprague-Dawley rat at 2 mg/kg, iv by LC-MS/MS analysis
# Format: ADME, organism-based
# Parameters: dose 2 mg/kg, route intravenous
# DETAILS: in vivo
QUANTITY: clearance (mL/min/kg)

SMILES	TEST RESULT
O=C(/C=C/c1cccn(Cc2ccc3ccccc3n2)c1=O)NO	93.3

----------
# TEST DETAILS: AUC (0 to 5 hrs) in Sprague-Dawley rat at 10 mg/kg, po by LC-MS/MS analysis
# Format: ADME, organism-based
# Set-up: dose 10 mg/kg, route oral
# DETAILS: plasma

SMILES	AUC(0-t) at 4 h
O=C(/C=C/c1cccn(Cc2ccc3ccccc3n2)c1=O)NO	863 ng·h/mL

----------
# TEST DETAILS: Volume of distribution at steady state in Sprague-Dawley rat at 2 mg/kg, iv by LC-MS/MS analysis
# Type: ADME, organism-based
# Design: dose 2 mg/kg, route intravenous
# DETAILS: in vivo, read-out: Vdss
QUANTITY: Vd (L/kg)

SMILES	TEST RESULT
O=C(/C=C/c1cccn(Cc2ccc3ccccc3n2)c1=O)NO	14

----------
This section presents compounds with their documented GI50 values.
# TEST DETAILS: Growth inhibition of human NUGC3 cells after 5 days by sulforhodamine B assay
# Format: functional
# DETAILS: NUGC-3, 120 h

SMILES	COMPARISON SIGN	GI50, nM
CCc1ccc(CCCn2cccc(/C=C/C(=O)NO)c2=O)cc1	=	1740
O=C(/C=C/c1cccn(CCc2ccccn2)c1=O)NO	>	10000
O=C(/C=C/c1cccn(CCc2ccncc2)c1=O)NO	>	10000
CCc1ccc(CCn2cccc(/C=C/C(=O)NO)c2=O)cc1	=	740
O=C(/C=C/c1cccn(Cc2ccccc2Br)c1=O)NO	=	1660
CC(C)(C)c1ccc(CCn2cccc(/C=C/C(=O)NO)c2=O)cc1	=	470
CC(C)(C)c1ccc(CCCn2cccc(/C=C/C(=O)NO)c2=O)cc1	=	1310
CCOc1ccc(CCn2cccc(/C=C/C(=O)NO)c2=O)cc1	=	1280
O=C(/C=C/c1cccn(CCc2ccc(Br)cc2)c1=O)NO	=	2830
O=C(/C=C/c1cccn(Cc2ccccn2)c1=O)NO	>	10000
COc1ccc(CCCn2cccc(/C=C/C(=O)NO)c2=O)cc1	=	970
CCc1ccccc1Cn1cccc(/C=C/C(=O)NO)c1=O	=	5410
O=C(/C=C/c1cccn(Cc2cccnc2)c1=O)NO	=	5940
CCc1ccc(Cn2cccc(/C=C/C(=O)NO)c2=O)cc1	=	1670
CCOc1ccccc1CCCn1cccc(/C=C/C(=O)NO)c1=O	=	470
O=C(/C=C/c1cccn(CCCc2ccccc2Br)c1=O)NO	=	1500
CCOc1cccc(CCn2cccc(/C=C/C(=O)NO)c2=O)c1	=	1420
COc1ccc(Cn2cccc(/C=C/C(=O)NO)c2=O)cc1	=	3880
O=C(/C=C/c1cccn(CCCc2cccc(Br)c2)c1=O)NO	=	1200
CC(C)(C)c1ccc(Cn2cccc(/C=C/C(=O)NO)c2=O)cc1	=	1820
COc1cccc(Cn2cccc(/C=C/C(=O)NO)c2=O)c1	=	1690
O=C(/C=C/c1cccn(CCCc2ccc(Br)cc2)c1=O)NO	=	4020
CCOc1ccccc1CCn1cccc(/C=C/C(=O)NO)c1=O	=	3920
O=C(/C=C/c1cccn(Cc2ccncc2)c1=O)NO	=	9190

----------
# TEST DETAILS: Metabolic stability in rat liver microsomes assessed as compound remaining at 1 uM after 60 mins by LC-ESI/MS/MS analysis in presence of UDPGA
# Assay type: ADME
# DETAILS: read-out: Stability
QUANTITY: remaining at 1 h, 1 µM (%)

SMILES	QUANTITY	TEST RESULT
O=C(/C=C/c1cccn(Cc2ccc3ccccc3n2)c1=O)NO	remaining at 1 h, 1 µM	72.4
COc1cccc(CCCn2cccc(/C=C/C(=O)NO)c2=O)c1	remaining at 1 h, 1 µM	45.7

----------
# Test system: HEK293
# TEST DETAILS: Induction of myc-tagged RUNX3 acetylation in human HEK293 cells assessed as acetylated RUNX3 level at 1 uM after 24 hrs by immunoprecipitation analysis relative to TSA
# Format: functional
Threshold 0.2. fold change (FC) below it: yes (1). fold change (FC) at it or above: no (0).

SMILES	CAT
COc1cccc(Cn2cccc(/C=C/C(=O)NO)c2=O)c1	no (0)
CCOc1ccccc1CCCn1cccc(/C=C/C(=O)NO)c1=O	no (0)
COc1cccc(CCCn2cccc(/C=C/C(=O)NO)c2=O)c1	no (0)
O=C(/C=C/c1cccn(Cc2ccc3ccccc3n2)c1=O)NO	no (0)
O=C(/C=C/c1cccn(CCCc2cccc(Br)c2)c1=O)NO	no (0)
CC(C)(C)c1ccc(CCn2cccc(/C=C/C(=O)NO)c2=O)cc1	yes (1)

----------
This section presents compounds with their documented remaining at 1 h, 1 µM values.
# TEST DETAILS: Metabolic stability in rat liver microsomes assessed as compound remaining at 1 uM after 60 mins byLC-ESI/MS/MS analysis in presence of NADPH
# Format: ADME
# DETAILS: read-out: Stability

SMILES	remaining at 1 h, 1 µM
O=C(/C=C/c1cccn(Cc2ccc3ccccc3n2)c1=O)NO	83.5%
COc1cccc(CCCn2cccc(/C=C/C(=O)NO)c2=O)c1	72.7%

----------
# TEST DETAILS: Terminal half life in Sprague-Dawley rat at 2 mg/kg, iv by LC-MS/MS analysis
# Format: ADME, organism-based
# Design: dose 2 mg/kg, route intravenous
# DETAILS: in vivo, read-out: beta t1/2 (converted)

SMILES	UNITS TEXT	half-life
O=C(/C=C/c1cccn(Cc2ccc3ccccc3n2)c1=O)NO	h	4.4

----------
# TEST DETAILS: Oral bioavailability in Sprague-Dawley rat at 10 mg/kg by LC-MS/MS analysis
# Format: ADME, organism-based
# DETAILS: in vivo

SMILES	UNITS TEXT	bioavailability
O=C(/C=C/c1cccn(Cc2ccc3ccccc3n2)c1=O)NO	%	48.7
